System Tested: human Elastase, ELANE (gene 1991) (UniProt P08246)
Sequence (P08246 whole entry, looked up): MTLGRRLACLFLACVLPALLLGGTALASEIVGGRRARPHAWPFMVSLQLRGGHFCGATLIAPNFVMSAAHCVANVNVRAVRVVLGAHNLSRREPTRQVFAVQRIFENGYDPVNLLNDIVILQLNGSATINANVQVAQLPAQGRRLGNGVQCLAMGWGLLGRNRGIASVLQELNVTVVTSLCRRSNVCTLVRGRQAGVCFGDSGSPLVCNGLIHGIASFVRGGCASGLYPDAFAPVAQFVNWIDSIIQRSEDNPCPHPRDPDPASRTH
Assay Summary: NVS_ENZ_hElastase: NovaScreen (NVS) Enzymatic Assay for human Elastase (AID 2283153)
Records with an inconclusive call do not appear. Calls of active or inactive are those of the source. The calls were made as follows: active = hit-call score of the fitted dose curve at least 0.9, where 1 is the maximum; inconclusive = response in the unintended direction; inactive = score below 0.9.
Respond only with the outcome that fits, drawn from T for active, F for inactive

Exercise: Please share the test call associated with CCCCC(CC)COC(=O)c1ccc(C(=O)OCC(CC)CCCC)cc1 (configuration not stated) .
Key: F

Exercise: Please share the test call associated with `CCOc1cccc(-n2cc(C(=O)N3CCN(c4cc(C(=O)O)c5ccccc5c4)CC3)nc2-c2ccc(C)cc2)c1` .
Key: T

Exercise: Please share the test call associated with CNS(=O)(=O)c1cc(C(=O)N2CCC(CCN3C4CCC3CC(n3c(C)nc5ccccc53)C4)(c3cccc(F)c3)CC2)c(Cl)cc1F (configuration not stated) .
Key: T

Exercise: Please share the test call associated with `O=C(OC[C@H]1O[C@@H](OC(=O)c2cc(O)c(O)c(OC(=O)c3cc(O)c(O)c(O)c3)c2)[C@H](OC(=O)c2cc(O)c(O)c(OC(=O)c3cc(O)c(O)c(O)c3)c2)[C@@H](OC(=O)c2cc(O)c(O)c(OC(=O)c3cc(O)c(O)c(O)c3)c2)[C@@H]1OC(=O)c1cc(O)c(O)c(OC(=O)c2cc(O)c(O)c(O)c2)c1)c1cc(O)c(O)c(OC(=O)c2cc(O)c(O)c(O)c2)c1` .
Key: T

Exercise: Please share the test call associated with `CCC(C)(C)C(=O)O[C@H]1C[C@@H](C)C=C2C=C[C@H](C)[C@H](CC[C@@H]3C[C@@H](O)CC(=O)O3)[C@H]21` .
Key: F

Exercise: Please share the test call associated with CCCCC(CC)COC(=O)CCCCCCCCC(=O)OCC(CC)CCCC (configuration not stated) .
Key: T

Exercise: Please share the test call associated with `COc1ccc2sc(C(=O)Nc3nnn[nH]3)c(OC(C)C)c2c1` .
Key: F

----------
Assay Summary: STM_H9_CystineISnorm_perc: Stemina devTOX quickPredict H9 human embryonic stem cell (hESC)-based Assay for Cystine (CYSS) Metabolite Biomarker, Normalized (AID 2283713)
Calls of active or inactive are those of the source. Rule for the calls: active = hit-call score of the fitted dose curve at least 0.9, where 1 is the maximum; inactive = score below 0.9.
Respond only with the outcome that fits, drawn from true (1) (active), false (0) (inactive)

Exercise: Please share the test call associated with `O=P(OC(CCl)CCl)(OC(CCl)CCl)OC(CCl)CCl` .
Key: false (0)

Exercise: Please share the test call associated with `On1ccccc1=S` .
Key: true (1)

Exercise: Please share the test call associated with `CCN(C(=O)c1cc(C)cc(OC[C@H](C)Nc2ccncc2)c1)C(C)C` .
Key: true (1)

Exercise: Please share the test call associated with `COc1cccc(-c2ccc(/C=C\CN3CCCCCC3)cc2Cl)c1` .
Key: true (1)

Exercise: Please share the test call associated with `Cn1c(=O)cc(Oc2ccc(F)cc2F)c2cnc(NCC(C)(C)O)nc21` .
Key: false (0)

Exercise: Please share the test call associated with `CC[C@H]1CC[C@H](NCc2cc3c(cc2OC)[C@H]2C[C@H]2C(=O)N3C)[C@H](c2ccccc2)N1` .
Key: true (1)

Exercise: Please share the test call associated with `CNCc1ccc(NC(=O)c2c[nH]c3c2C(=O)CCC3)cc1` .
Key: false (0)

Exercise: Please share the test call associated with `CN(C)c1ccc(N=NS(=O)(=O)O)cc1` .
Key: true (1)

Exercise: Please share the test call associated with `CC(C)CCO` .
Key: true (1)

Exercise: Please share the test call associated with `Nc1ccc(Nc2ccccc2)cc1` .
Key: true (1)

Exercise: Please share the test call associated with O=C1CCC(N2C(=O)c3ccccc3C2=O)C(=O)N1 (centres undefined) .
Key: false (0)

Exercise: Please share the test call associated with `CCC(C)(C)C(=O)O[C@H]1C[C@@H](C)C=C2C=C[C@H](C)[C@H](CC[C@@H]3C[C@@H](O)CC(=O)O3)[C@H]21` .
Key: false (0)

Exercise: Please share the test call associated with CCOC(=O)c1ccc(C2CCC(NC[C@H](O)COc3ccc(O)c(NS(C)(=O)=O)c3)CC2)cc1 (some centres undefined) .
Key: true (1)

Exercise: Please share the test call associated with `CC(C)c1cccc(C(C)C)c1N1C(=O)c2ccc(O)cc2C1=O` .
Key: true (1)

Exercise: Please share the test call associated with `NC(=O)NO` .
Key: true (1)

Exercise: Please share the test call associated with `Nc1nc2ncc(CNc3ccc(C(=O)N[C@@H](CCC(=O)O)C(=O)O)cc3)nc2c(=O)[nH]1` .
Key: false (0)

Exercise: Please share the test call associated with CC(C)CC(C)(O)C#CC(C)(O)CC(C)C (centres undefined) .
Key: true (1)

Exercise: Please share the test call associated with `Cn1c(=O)c2c(ncn2C)n(C)c1=O` .
Key: true (1)

Exercise: Please share the test call associated with `CCCCCCCCCCCCc1ccccc1` .
Key: false (0)

----------
Assay Summary: CCTE_Shafer_MEA_acute_synchrony_index: CCTE's Neural Acute Assay for Synchrony, Shafer Lab (AID 2284027);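 also: network synchrony index of spontaneous spiking in primary rat cortical neurons on MEAs; fitted for loss of signal so actives lower synchrony relative to DMSO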
Calls of active or inactive are those of the source. How the source made its calls: active means hit-call score of the fitted dose curve at least 0.9, where 1 is the maximum; inactive means score below 0.9.
Respond only with the outcome that fits, drawn from Yes for active, No for inactive

Exercise: Please share the test call associated with `CCC(C)(C)C(=O)O[C@H]1C[C@@H](C)C=C2C=C[C@H](C)[C@H](CC[C@@H]3C[C@@H](O)CC(=O)O3)[C@H]21` .
Key: No

Exercise: Please share the test call associated with `CC[C@H]1OC(=O)[C@H](C)[C@@H](O[C@H]2C[C@@](C)(OC)[C@@H](O)[C@H](C)O2)[C@H](C)[C@@H](O[C@@H]2O[C@H](C)C[C@H](N(C)C)[C@H]2O)[C@](C)(O)C[C@@H](C)C(=O)[C@H](C)[C@@H](O)[C@]1(C)O` .
Key: No

Exercise: Please share the test call associated with `CCCCCCc1ccc(O)cc1O` .
Key: Yes

Exercise: Please share the test call associated with `CCCN(C1CCN(C(=O)C2CCNCC2)CC1)[C@@H]1CCc2ccc(OC)cc2C1` .
Key: Yes

Exercise: Please share the test call associated with CCOC(=O)c1ccc(C2CCC(NC[C@H](O)COc3ccc(O)c(NS(C)(=O)=O)c3)CC2)cc1 (stereo partly drawn) .
Key: Yes

Exercise: Please share the test call associated with `O=C(O)CCN(C1(C(=O)NO)CCCC1)S(=O)(=O)c1ccc(Oc2ccc(F)cc2)cc1` .
Key: No

Exercise: Please share the test call associated with CCCCC(CC)COC(=O)CCCCCCCCC(=O)OCC(CC)CCCC (stereo not drawn) .
Key: No

Exercise: Please share the test call associated with `Cn1cnc([N+](=O)[O-])c1Sc1ncnc2nc[nH]c12` .
Key: No

----------
Assay Summary: BSK_3C_Proliferation: Cell Proliferation Assessment in the BioMAP Diversity Plus: 3C Assay (AID 2283006)
Assay Setup: primary human endothelial cells (HUVEC)
The source made the active and inactive calls. Rule for the calls: active = hit-call score of the fitted dose curve at least 0.9, where 1 is the maximum; inactive = score below 0.9.
Respond only with the outcome that fits, drawn from yes (1) = active, no (0) = inactive

Exercise: Please share the test call associated with `CC1(C)C(=O)N(Br)C(=O)N1Br` .
Key: no (0)

Exercise: Please share the test call associated with `CC1=CC(=O)CC(C)(C)C1` .
Key: no (0)

Exercise: Please share the test call associated with `COC(=O)CC(=O)OC` .
Key: no (0)

Exercise: Please share the test call associated with `CCOCCO` .
Key: no (0)

Exercise: Please share the test call associated with O=C1OC(=O)C2C3C=CC(C3)C12 (stereo unspecified) .
Key: no (0)

Exercise: Please share the test call associated with O=c1[nH]c2ccc(S(=O)CCN3CCC(Cc4ccc(F)cc4)CC3)cc2o1 (stereo unspecified) .
Key: no (0)

Exercise: Please share the test call associated with `COCCOc1cc2cc(C(=O)NC3CCN(C(C)C)CC3)n(CC(=O)Nc3ccc(Cl)cn3)c2cn1` .
Key: no (0)

Exercise: Please share the test call associated with `COc1ccc2sc(C(=O)Nc3nnn[nH]3)c(OC(C)C)c2c1` .
Key: yes (1)

Exercise: Please share the test call associated with O=c1n(CC2CO2)c(=O)n(CC2CO2)c(=O)n1CC1CO1 (stereo unspecified) .
Key: yes (1)

Exercise: Please share the test call associated with Fc1ccccc1[C@@H](F)COC1CCC(Nc2ncnc3[nH]ncc23)CC1 (stereo partly specified) .
Key: yes (1)

Exercise: Please share the test call associated with `O=C(CCCCCCCCc1cccnc1)N1CCC(C=C(c2ccccc2)c2ccccc2)CC1` .
Key: yes (1)

----------
Assay Summary: APR_HepG2_NuclearSize_72hr: Apredica 72-hour HepG2 Assay for Nuclear Size (AID 2282925)
Assay Setup: high-content imaging, actives raise or lower the signal
Calls of active or inactive are those of the source. The calls were made as follows: active = hit-call score of the fitted dose curve at least 0.9, where 1 is the maximum; inactive = score below 0.9.
Respond only with the outcome that fits, drawn from t = active, f = inactive

Exercise: Please share the test call associated with `Cn1cnc([N+](=O)[O-])c1Sc1ncnc2nc[nH]c12` .
Key: f

Exercise: Please share the test call associated with `O=C(O)c1cccc(N(Cc2cccnc2)c2ccc(OC(F)F)c(OC(F)F)c2)c1` .
Key: t

Exercise: Please share the test call associated with `CCN(C(=O)c1cc(C)cc(OC[C@H](C)Nc2ccncc2)c1)C(C)C` .
Key: f

Exercise: Please share the test call associated with `C=CC(=C)CCC=C(C)C` .
Key: f

Exercise: Please share the test call associated with `COCCOc1cc2cc(C(=O)NC3CCN(C(C)C)CC3)n(CC(=O)Nc3ccc(Cl)cn3)c2cn1` .
Key: f

Exercise: Please share the test call associated with `Cc1[nH]cnc1C[C@H]1CCc2c(C)c3ccccc3n2C1=O` .
Key: f
